target: Heat shock protein HSP 90-alpha (Homo sapiens, UniProt P07900); type: functional, organism-based
Activity calls are given as the source filed them.
Readout Label: AC50

Here's what some known entries look like.
- O=C(NNc1nc2ccc(Cl)cc2s1)c1cc(-c2cccs2)nc2ccccc12: 2180 nM (active)
- O=[N+]([O-])c1ccc(Sc2cccc[n+]2[O-])c2nonc12: 3910 nM (active)

Batch request: AC50 per item, same order as input.
1. Oc1c(Cl)cc(Cl)c(Cl)c1Cc1c(O)c(Cl)cc(Cl)c1Cl
2. CCCCCCOC(=O)Sc1nc2ccccc2o1

Key:
["770 nM (active)", "2780 nM (active)"]

Data provenance: ChEMBL document CHEMBL1201862
